Source of measurements: PubChem BioAssay

Assay: growth suppression of yeast trafficking mutant, preliminary HTS, modulators of trafficking downstream of Golgi apparatus project, 1536-format plate, OD 615 nm (AID 637)
Details: yeast transport mutant growth, absorbance 615 nm, 18 h; hits give high values
quantityName: inhibition (%)
Number in %, nothing else.

compound | resultValue
CCn1cc(C(=O)NCCC2=CCCCC2)c(=O)c2cc(S(=O)(=O)N(C)C)ccc21 | -3.61
Oc1c(C(c2ccccc2)N2CCc3ccccc3C2)sc2ncnn12 (stereo not drawn) | -2
CC(C)(C)SCCNC(=O)CSc1ccccc1 | 1.9
COCCn1cc(C(=O)c2ccccc2OCC(=O)Nc2cc(C)on2)cc(C#N)c1=O | -1.17
Cc1csc(NC(=O)C(Cc2ccccc2)n2cccc2)n1 (stereo not drawn) | 6.56

Task item: What does the record list as inhibition for `CN(CC(=O)N1CCCCC1)S(=O)(=O)c1cccc2cccnc12` ?
Reply: -1.8

---

Assay: HUVEC growth inhibition – cell-based, human, primary screen (AID 575);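 further: 100% = median of untreated cell wells with 0.1% DMSO on each plate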
Settings: HUVEC proliferation, CellTiter-Glo luminescence, 72 h; at 10 µM; hits give low values
Known viability of a selection of compounds
Number in %, nothing else.

Examples with answers:
compound | resultUnit | viability
CCOC(=O)C(C)(C)Sc1nc2c(cnn2-c2ccc(Cl)cc2)c(=O)[nH]1 | % | 64.4
COc1ccc(OCc2nc(C#N)c(N3CCN(c4ccc(OC)cc4)CC3)o2)cc1 | % | 90.6
CC1CCc2nn(CC(=O)NCCN3CCOCC3)cc2C1 (stereo not drawn) | % | 98.6
CC1CC(C)CN(Cc2nc3c(c(=O)n(C)c(=O)n3C)n2Cc2ccccc2Cl)C1 (stereo not drawn) | % | 97.8
COc1ccc(-c2noc(COc3ccc(Cl)c(C)c3)n2)cc1 | % | 99.6

Task item: What does the record list as viability for `COc1cc(NC(=O)CN(c2cc(C)cc(C)c2)S(=O)(=O)c2c(C)noc2C)cc(OC)c1` ?
Reply: 80.8

Task item: `COc1ccc(N2Cc3ccccc3C2)cc1Cl` ?
Reply: 81.9

Task item: `CC(=O)Nc1cccc(Oc2nc(C)cc(C)c2C#N)c1` ?
Reply: 94.1

---

Assay: MRP1 drug-resistance reversers in H69AR cells – cell-based, doxorubicin co-treatment, pilot screen (AID 601)
Details: H69AR cells + 2 uM doxorubicin, CellTiter-Glo, 72 h; at 10 µM; hits give high values
quantityName: differential viability (reversal) (%)
Number in %, nothing else.

Examples with answers:
molecule | quantityName | resultValue
C/C=C/COC(=O)c1[nH]c2c(c1C)C(=O)CC(c1ccco1)C2 (configuration not stated) | differential viability (reversal) | -15.9
CCOC(=O)CSc1nnc(Cn2c(=O)sc3ccccc32)n1C | differential viability (reversal) | 11.1
O=C(O)C1C2C=CC3(CN(C4CCCC4)C(=O)C13)O2 (configuration not stated) | differential viability (reversal) | -9.36
CCOC(=O)N1CCN(C(=O)c2cnn(-c3ccccc3)c2NC(=O)c2ccccc2F)CC1 | differential viability (reversal) | 12
O=C(c1ccc(Br)o1)N(Cc1ccccc1)c1ccccn1 | differential viability (reversal) | 2.17
Cc1cccc(Cn2c(SCC(=O)Nc3ccccc3)nc3c2c(=O)[nH]c(=O)n3C)c1 | differential viability (reversal) | -0.02

Lab note: next molecule to report on.
Task item: What does the record list as differential viability (reversal) for `COc1ccccc1N1CCN(C(=O)C2CCN(S(=O)(=O)c3ccc(F)cc3)CC2)CC1` ?
Reply: 6.62
